System: COLO 205 colon
Assay Comment: NCI tumour cell line growth inhibition, 48 h; in the data active = GI50 below about 0.43 µM; inactive = the rest
Possible outcomes: active, inactive

[[record]]
compound = "O=C(/C=C/c1cccc(Cl)c1)c1ccccc1"
class = "inactive"

[[record]]
compound = "CC[C@@]1(O)C(=O)OCc2c1cc1n(c2=O)Cc2cc3c(N)c(OC)ccc3nc2-1"
class = "active"

[[record]]
compound = "CC(C)(C)c1ccc(OCCCCCCCN2CCNCC2)cc1"
class = "inactive"

[[record]]
compound = "COc1cccc(C2=C(c3cn(C)c4c(C)cccc34)C(=O)NC2=O)c1"
class = "inactive"

[[record]]
compound = "Cc1nc2sc(C(=O)Nc3cccc4c3OCCO4)c(N)c2cc1C(C)O (stereo unspecified)"
class = "inactive"

[[record]]
compound = "N#C/C(=C\\c1ccccn1)c1nc2ccccc2o1"
class = "inactive"


---

Tested on: ACHN renal
Assay Comment: NCI tumour cell line growth inhibition, 48 h
Readout Label: GI50

[[record]]
molecule = "CCc1n(Cc2ccc3ccccc3c2)cc[n+]1Cc1ccc2ccccc2c1"
readout_label = "GI50"
assay_result = "2.87 µM"

[[record]]
molecule = "NC(=O)c1c(NC(=O)c2ccc(C(F)(F)F)cc2Cl)sc2c1CCC(=O)C2"
readout_label = "GI50"
assay_result = "0.322 µM"

[[record]]
molecule = "Nc1ccccc1SC(CC(=O)c1ccccc1)c1c(Cl)cccc1Cl (stereo not drawn)"
readout_label = "GI50"
assay_result = "2.16 µM"

[[record]]
molecule = "Nc1ncnc2occ(-c3ccc(NC(=O)Nc4cccc(C(F)(F)F)c4)cc3)c12"
readout_label = "GI50"
assay_result = "1.4 µM"

[[record]]
molecule = "COc1cc(/C=C/C(=O)c2cccc(-n3cc(-c4ccccc4)[nH]c3=O)c2)ccc1O"
readout_label = "GI50"
assay_result = "3.46 µM"

[[record]]
molecule = "COc1cccc(/C=C2\\COc3ccc(O)c(O)c3C2=O)c1OC"
readout_label = "GI50"
assay_result = "3.27 µM"

[[record]]
molecule = "O=C1C=CC(=O)N1c1ccc2ccccc2c1"
readout_label = "GI50"
assay_result = "4.66 µM"

[[record]]
molecule = "CC(=O)OC1C(C)OC(Oc2c(-c3ccc(O)cc3)oc3cc(O)cc(O)c3c2=O)C(O)C1OC(C)=O (stereo not drawn)"
readout_label = "GI50"
assay_result = "52.3 µM"

[[record]]
molecule = "CC[C@@]1(O)C(=O)OCc2c1cc1n(c2=O)Cc2cc3c(N)c(OC)ccc3nc2-1"
readout_label = "GI50"
assay_result = "0.0255 µM"

[[record]]
molecule = "COc1ccc(C(=O)c2no[n+]([O-])c2C(=O)c2ccc(OC)cc2)cc1"
readout_label = "GI50"
assay_result = "1.9 µM"

[[record]]
molecule = "O=C1/C(=C/c2ccc([N+](=O)[O-])s2)Oc2ccc(Br)cc21"
readout_label = "GI50"
assay_result = "0.199 µM"

[[record]]
molecule = "C(#Cc1ccccc1C#Cc1cnccn1)c1cnccn1"
readout_label = "GI50"
assay_result = "19.2 µM"

[[record]]
molecule = "O=C(/C=C/c1cccc(Cl)c1)c1ccccc1"
readout_label = "GI50"
assay_result = "10.5 µM"


---

Tested on: CAKI-1 renal
Assay Comment: NCI tumour cell line growth inhibition, 48 h
// reported GI50 per item
Readout Label: GI50

[[record]]
line_notation = "Nc1ncnc2occ(-c3ccc(NC(=O)Nc4cccc(C(F)(F)F)c4)cc3)c12"
assay_result = "2.29 µM"

[[record]]
line_notation = "CCc1n(Cc2ccc3ccccc3c2)cc[n+]1Cc1ccc2ccccc2c1"
assay_result = "12.4 µM"

[[record]]
line_notation = "O=[N+]([O-])c1cc2c(ccc3ccccc32)o1"
assay_result = "0.31 µM"

[[record]]
line_notation = "O=C(NCCc1nccs1)c1cnc2c(S)cccc2c1"
assay_result = "3.22 µM"

[[record]]
line_notation = "COc1cc2c(cc1OCCCN1CCN(CCCOc3cc4c(cc3OC)C(=O)N3C[C@H](F)C[C@H]3C=N4)CC1)N=C[C@@H]1C[C@@H](F)CN1C2=O"
assay_result = "0.0683 µM"

[[record]]
line_notation = "CC(C)(C)c1ccc(OCCCCCCCN2CCNCC2)cc1"
assay_result = "1.46 µM"


---

Entries and their measured TGI follow.
System: UACC-62 melanoma
Assay Comment: NCI tumour cell line growth inhibition, 48 h
Readout Label: TGI (µM)

[[record]]
compound = "Nc1nc(N)c2ncn(Cc3ccccc3CO)c2n1"
op = ">"
assay_result = 100

[[record]]
compound = "c1ccc2c(c1)n1c(N3CCCC3)[n+]3ccccc3c1c1c3cccc[n+]3c(N3CCCC3)n21"
op = ">"
assay_result = 100

[[record]]
compound = "Cc1ccc(-c2csc3ncnc(Nc4cccc(O)c4)c23)cc1"
op = "="
assay_result = 73

[[record]]
compound = "CN(C)/C=N/S(=O)(=O)c1nn2c(C=O)c(-c3ccc(-c4ccccc4)cc3)nc2s1"
op = "="
assay_result = 6.45

[[record]]
compound = "CCOC(=O)c1c(C)n(Cc2ccc(Cl)cc2Cl)c2c1cc(O)c1[nH]c(Cc3ccccc3)nc12"
op = "="
assay_result = 34.1

[[record]]
compound = "CC1=CC2=C(C=O)C(=O)[C@](C)(O)[C@@H](O)C2=CO1"
op = "="
assay_result = 71.5

[[record]]
compound = "Cc1nc2ccccc2c(/C=C/c2ccc(F)cc2)c1C(=O)/C=C/c1ccccc1"
op = "="
assay_result = 4.04

[[record]]
compound = "Oc1ccc(Br)cc1C=Nc1ccc(Oc2ccc(N=Cc3cc(Br)ccc3O)cc2)cc1"
op = ">"
assay_result = 19.6

[[record]]
compound = "C=CCNC(=S)NC=C(C(N)=O)C(N)=O"
op = ">"
assay_result = 100

[[record]]
compound = "COc1ccc(C)cc1-c1ccc(-c2cc(C)ccc2OC)o1"
op = ">"
assay_result = 100

[[record]]
compound = "O=C1CC[C@@H]2[C@H]3CCC(=O)c4c3c(c3cccc(O)c3c4O)O[C@@]23C(=O)c2cccc(O)c2C(O)=C13"
op = ">"
assay_result = 100

[[record]]
compound = "O=[N+]([O-])c1cc2c(ccc3ccccc32)o1"
op = "="
assay_result = 1.72

[[record]]
compound = "C=C1C(=O)OC2/C=C(\\CO)C3OC3C3OC3(C)CC(OC(=O)/C(=C/C)COC(C)=O)C12 (stereo unspecified)"
op = "="
assay_result = 6.2

[[record]]
compound = "CC12CC(Br)(Br)C(=O)C3C1CCCC32"
op = "="
assay_result = 19.7

[[record]]
compound = "CC1(c2cccc(C(F)(F)F)c2)CC(c2cccc(C(F)(F)F)c2)=C(C#N)C(=C(C#N)C#N)N1 (stereo unspecified)"
op = "="
assay_result = 31.3

[[record]]
compound = "CS(C)(=O)=Nn1c(=O)n2n(c1=O)[C@H]1CC[C@@H]2C1"
op = ">"
assay_result = 100

[[record]]
compound = "NNC(=O)C(=O)N/N=C1\\CCCC1C(=O)CCC(=O)Nc1cccc(Cl)c1 (stereo unspecified)"
op = ">"
assay_result = 100

[[record]]
compound = "O=C(O)CC(CC(=O)O)n1cccc1"
op = ">"
assay_result = 100

[[record]]
compound = "Cc1ccccc1-n1c(=O)nc2n(-c3ccc(C(C)(C)C)cc3)c3ccccc3cc-2c1=O"
op = "="
assay_result = 41

[[record]]
compound = "NC(N)=NS(=O)(=O)c1ccc(NCc2cccc3c(=O)c4ccc(Cl)cc4oc23)cc1"
op = ">"
assay_result = 24.1

[[record]]
compound = "O=C1C2C3C=CC(C2C(=O)N1CN1CCOCC1)C1C2C(=O)N(CN4CCOCC4)C(=O)C2C31 (stereo unspecified)"
op = ">"
assay_result = 63


---

System: IGROV1 ovarian
Assay Comment: NCI tumour cell line growth inhibition, 48 h; in the data active = GI50 below about 0.43 µM; inactive = the rest
Outcome codes: 1.0 (active), 0.0 (inactive)

[[record]]
compound = "Cc1ccc(-c2csc3ncnc(Nc4cccc(O)c4)c23)cc1"
class = 0.0

[[record]]
compound = "C=CC(=O)N1CCN(c2nc(OC[C@@H]3CCCN3C)nc3c(F)c(-c4nc(N)cc(C)c4C(F)(F)F)c(Cl)cc23)[C@@H](C)C1"
class = 0.0

[[record]]
compound = "COc1cc2c(cc1OCCCN1CCN(CCCOc3cc4c(cc3OC)C(=O)N3C[C@H](F)C[C@H]3C=N4)CC1)N=C[C@@H]1C[C@@H](F)CN1C2=O"
class = 1.0

[[record]]
compound = "C[C@H]1CCC/C=C/[C@@H]2C[C@H](O)C[C@H]2[C@H](O)C(O)C(O)C(=O)O1 (stereo partly drawn)"
class = 0.0

[[record]]
compound = "O=C1c2c[n+](Cc3ccccc3)ccc2-c2nc3ccccc3c3ccnc1c23"
class = 0.0

[[record]]
compound = "COC(=O)c1cc2c3cc(Cl)ccc3[nH]c2c2ncccc12"
class = 0.0

[[record]]
compound = "CCc1n(Cc2ccc3ccccc3c2)cc[n+]1Cc1ccc2ccccc2c1"
class = 0.0

[[record]]
compound = "O=C(N/N=C/c1coc2ccc(Cl)cc2c1=O)c1cc(O)c(O)c(O)c1"
class = 0.0

[[record]]
compound = "CCOC(=O)CCC(NC(=O)c1ccc(Oc2nc3cc(N)cc(N)c3nc2-c2ccccc2)cc1)C(=O)OCC (stereo not drawn)"
class = 0.0

[[record]]
compound = "C=CCn1c(C)nc2cc(Nc3nc(N4CCCC4)nc4nc[nH]c34)ccc21"
class = 0.0

[[record]]
compound = "CCOC(=O)c1c(C)n(Cc2ccc(Cl)cc2Cl)c2c1cc(O)c1[nH]c(Cc3ccccc3)nc12"
class = 0.0

[[record]]
compound = "CCOC(=O)c1nc2sc(Cl)cn2c1/C=N/N=C(N)N"
class = 0.0

[[record]]
compound = "O=S(=O)([O-])c1ccc(C=Nc2ccccc2)c([O-])c1.O=S(=O)([O-])c1ccc(C=Nc2ccccc2)c([O-])c1.[Co+2]"
class = 0.0

